tested on: TNF-α, U937 human histiocytic lymphoma cell line; assay: LPS stimulation of TNF production by U937 cells; type: cell-based; conditions: Homo sapiens, U-937, @ 1.0 uM; TNF production, U937 cells stimulated with LPS; read-out: U937 Cell % inhib @ conc.
Kindly state inhibition at 1 µM for each of the entries shown.
Kindly provide the numeric value in % only, without the unit symbol.

(Q) Please look up its inhibition at 1 µM: "O=S(=O)(NCCc1[nH]nc(-c2ccc(F)cc2)c1-c1ccncc1)c1ccc2ccccc2c1"
(A) 24

(Q) Please look up its inhibition at 1 µM: "Cc1ccccc1C(=O)NCCc1[nH]nc(-c2ccc(F)cc2)c1-c1ccncc1"
(A) 9

(Q) Please look up its inhibition at 1 µM: "O=S(=O)(NCCc1[nH]nc(-c2ccc(F)cc2)c1-c1ccncc1)c1cc(Cl)c(Cl)s1"
(A) 28

(Q) Please look up its inhibition at 1 µM: "COc1ccc(CC(=O)N[C@H](C)c2[nH]nc(-c3ccc(F)cc3)c2-c2ccncc2)cc1OC"
(A) 28

(Q) Please look up its inhibition at 1 µM: "CCCCOc1ccc(S(=O)(=O)NCCc2[nH]nc(-c3ccc(F)cc3)c2-c2ccncc2)cc1"
(A) 29

(Q) Please look up its inhibition at 1 µM: "Cc1c(Cl)cccc1S(=O)(=O)NCCc1[nH]nc(-c2ccc(F)cc2)c1-c1ccncc1"
(A) 29

(Q) Please look up its inhibition at 1 µM: CNC(=O)CCC(NS(=O)(=O)c1ccccc1F)c1[nH]nc(-c2ccc(F)cc2)c1-c1ccncc1 (centres unmarked)
(A) 1

(Q) Please look up its inhibition at 1 µM: CNC(=O)CCC(NC(=O)Cc1cccc(OC)c1)c1[nH]nc(-c2ccc(F)cc2)c1-c1ccncc1 (centres unmarked)
(A) 3
